Provenance of the data: the METLIN SMRT retention time set (Domingo-Almenara et al. 2019)

test details: gradient 5% acetonitrile 3 min, to 50% in 2 min, to 85% in 15 min, held 3 min, 100 µL/min
cond: column: Zorbax Extend-C18 2.1 x 50 mm; eluents: water / acetonitrile, 0.1% formic acid
readout: RP-LC retention time (s)

1. O=C1CC(c2nc3ccccc3n2CCN2CCOCC2)CN1Cc1ccc(F)cc1 (centres undefined)
612
2. O=C(NC(C(=O)N1CCCc2ccccc21)c1ccccc1)C1CC(=O)N(c2ccccc2)C1 (centres undefined)
951

[P] CCc1onc(C)c1C1CCCN1C(=O)CCc1ccc(OC)cc1 (centres undefined)
[Q] Cn1nccc1-c1cccc(-c2noc(-c3cc(F)cc(F)c3)n2)c1
// which entry has the larger RP-LC retention time value, P or Q ? Record your answer as the label of the chosen record.
Q

====

test details: gradient 5% acetonitrile 3 min, to 50% in 2 min, to 85% in 15 min, held 3 min, 100 µL/min
cond: column: Zorbax Extend-C18 2.1 x 50 mm; eluents: water / acetonitrile, 0.1% formic acid
readout: RP-LC retention time (s)

Known RP-LC retention time results, listed for orientation:
1) CCN(Cc1nc2ccccc2n1C)c1ccccc1
593
2) CCOc1ccc(S(=O)(=O)NCc2ccc3c(c2)CCN3C(=O)c2ccccc2)cc1
953
3) Cc1cc(Cl)ccc1NC(=O)Cn1ccc2sccc2c1=O
764
4) O=C1CCc2cc(NC(=O)c3n[nH]c4ccccc34)ccc2N1
633

[1] COCCC1(NC(=O)c2ocnc2C)CCN(S(C)(=O)=O)CC1
[2] COc1ccc2c(c1)-c1nc(NC(=O)c3cccc(Br)c3)sc1CC2
Kindly identify the item with the lower RP-LC retention time figure among these two: 1 and 2 Record your answer as the label of the chosen record.
1
(1: 614 s, 2: 1230 s)

====

test details: gradient 5% acetonitrile 3 min, to 50% in 2 min, to 85% in 15 min, held 3 min, 100 µL/min
cond: column: Zorbax Extend-C18 2.1 x 50 mm; eluents: water / acetonitrile, 0.1% formic acid
readout: RP-LC retention time (s)

1. Cc1csc(-c2cc(S(=O)(=O)NCCCN3CCOCC3)cn2CC(=O)N2CCCCC2)n1
667
2. COC(=O)c1ncn2c1C(=O)N(C1CC1)C(C)(C(=O)NCc1ccccc1Cl)C2 (centres undefined)
658
3. O=C(CN1C(=O)CCCc2cc(S(=O)(=O)N3CCCC3)ccc21)Nc1ccc(F)cc1Cl
857
4. Cc1ccc2c(C(=O)N3CCCCC3)cc(NC(=O)C3CCC3)cc2n1
632
5. Cc1nc2cc(-c3noc(-c4ccc5c(c4)OCO5)n3)ccc2o1
1050
6. CC(C)Cc1nc(N2CCN(C(=O)c3ccco3)CC2)c(C#N)c2c1COC(C)(C)C2
1180
7. COc1ccc(CCCOC(Cn2ccnc2)c2ccc(OC)cc2)cc1 (centres undefined)
785

[A] COc1cc(NC(=O)Cc2cn3cc(Cl)ccc3n2)c(OC)cc1Cl
[B] CCOC(=O)c1c(C(C)(C)C)oc2ccc(OCC#N)cc12
// which entry has the larger RP-LC retention time value, A or B ? Record your answer as the label of the chosen record.
B

====

test details: gradient 5% acetonitrile 3 min, to 50% in 2 min, to 85% in 15 min, held 3 min, 100 µL/min
cond: column: Zorbax Extend-C18 2.1 x 50 mm; eluents: water / acetonitrile, 0.1% formic acid
readout: RP-LC retention time (s)

Known RP-LC retention time results, listed for orientation:
1. CCCNC(=O)Cn1cnc2sc(C(=O)N3CC(C)CC(C)C3)c(C)c2c1=O (stereo not given)
779
2. COC(=O)CNC(=O)N1CCCC1c1ccccc1Cl (stereo not given)
754
3. COc1cc([N+](=O)[O-])cc2sc(NC(=O)c3cc(=O)c4ccccc4o3)nc12
877

[A] COc1ccc(CC(=O)NC2CCN(c3cc(-c4ccccc4)[nH]n3)C2)cc1OC (stereo not given)
[B] Cc1oc2c(c(C)nn2-c2ccccc2)c(=O)c1Cl
Kindly identify the item with the lower RP-LC retention time figure among these two: A and B Record your answer as the label of the chosen record.
A
(A: 659 s, B: 954 s)

====

test details: gradient 5% acetonitrile 3 min, to 50% in 2 min, to 85% in 15 min, held 3 min, 100 µL/min
cond: column: Zorbax Extend-C18 2.1 x 50 mm; eluents: water / acetonitrile, 0.1% formic acid
readout: RP-LC retention time (s)

Known RP-LC retention time results, listed for orientation:
1. Cc1nc(C2(C)CCN(S(=O)(=O)c3c(C)c(C)cc(C)c3C)CC2)no1
1140
2. O=C1c2ccccc2C(=O)N1CCn1ncccc1=O
603
3. Cc1cccc2c1NC(=O)C2(O)CC(=O)c1ccccc1Cl (centres undefined)
729
4. O=C(CSc1ccc(F)cc1)Nc1ccc2c(c1)N(C(=O)c1ccccc1)CCC2
874
5. Cc1ccc(N2CCC(NC(=O)CC3CCCC3)C2=O)cc1 (centres undefined)
839
6. CCC1Oc2ccc(S(=O)(=O)N3CCC(C(=O)Nc4ccc(F)c(Cl)c4)CC3)cc2NC1=O (centres undefined)
969

[A] Cn1nc(-c2ccncc2)nc1C1CN(S(=O)(=O)c2cc(F)ccc2F)C1
[B] COc1ccc(Cl)cc1NS(=O)(=O)c1cc2c(s1)CCN(C(=O)C1CCC1)C2
// which entry has the larger RP-LC retention time value, A or B ? Record your answer as the label of the chosen record.
B
(B: 973 s, A: 638 s)

[I] Cc1cc(C(=O)NCC(O)c2cccc3ccccc23)c(C)o1 (centres undefined)
[II] CC(C)CN1CCn2cc(S(=O)(=O)Nc3ccccc3F)cc2C1=O
Kindly identify the item with the lower RP-LC retention time figure among these two: I and II Record your answer as the label of the chosen record.
I

====

test details: gradient 5% acetonitrile 3 min, to 50% in 2 min, to 85% in 15 min, held 3 min, 100 µL/min
cond: column: Zorbax Extend-C18 2.1 x 50 mm; eluents: water / acetonitrile, 0.1% formic acid
readout: RP-LC retention time (s)

Known RP-LC retention time results, listed for orientation:
1) CCn1cc(CC(=O)NCc2cccc(OC)c2)c2cccnc21
695
2) COc1ccc(S(=O)(=O)N2CCCC(c3nnnn3-c3ccccc3)C2)cc1 (stereo not given)
905

[a] CN(CCCNC(=O)C1c2ccccc2C(=O)N(C)C1c1cccs1)Cc1ccccc1 (stereo not given)
[b] COc1cc(NC(=O)c2ccc(-c3ccc(Cl)cc3)o2)cc(OC)c1
Kindly identify the item with the lower RP-LC retention time figure among these two: a and b Record your answer as the label of the chosen record.
a
(a: 645 s, b: 1170 s)

[I] CC(C)OCCCNC(=O)c1nnc(-c2ccc(S(=O)(=O)N3CCOCC3)cc2)o1
[II] CC(C)c1ccc(S(=O)(=O)N2CCc3nc(-c4ccccc4)ncc3C2)cc1
// which entry has the larger RP-LC retention time value, I or II ? Record your answer as the label of the chosen record.
II
(II: 1230 s, I: 784 s)

====

test details: gradient 5% acetonitrile 3 min, to 50% in 2 min, to 85% in 15 min, held 3 min, 100 µL/min
cond: column: Zorbax Extend-C18 2.1 x 50 mm; eluents: water / acetonitrile, 0.1% formic acid
readout: RP-LC retention time (s)

Known RP-LC retention time results, listed for orientation:
1. Cc1cccc2nnc(N3CCN(C(=O)c4cc(F)cc(F)c4)CC3)n12
669
2. COc1ccc(N2CC(c3nc(-c4ccc(Br)cc4)no3)CC2=O)c(OC)c1 (centres undefined)
1040
3. COc1ccc(NC(=O)Cn2ccc3ccc(-c4nnc(C)o4)cc32)cc1Cl
811
4. Cc1ccc(C)c(S(=O)(=O)Nc2ccc(N3CCN(c4ccccn4)CC3)c(C(=O)O)c2)c1
660
5. CC(C)NC(=O)C1CCN(C(=O)c2cc(-c3ccncc3)n[nH]2)CC1
556

[P] Cc1nc(C(=O)NCc2cccc(Cl)c2)c(C)o1
[Q] CC(C)n1cnc2cc(CNC(=O)c3ccc(C#N)cc3F)ccc21
Kindly identify the item with the lower RP-LC retention time figure among these two: P and Q Record your answer as the label of the chosen record.
Q

====

test details: gradient 5% acetonitrile 3 min, to 50% in 2 min, to 85% in 15 min, held 3 min, 100 µL/min
cond: column: Zorbax Extend-C18 2.1 x 50 mm; eluents: water / acetonitrile, 0.1% formic acid
readout: RP-LC retention time (s)

[P] Cc1cc(F)ccc1NS(=O)(=O)c1cn(CC(C)C)c2ncccc12
[Q] CCn1cc(C(=O)NCCn2c(C)cnc2C2CCC2)cn1
Kindly identify the item with the lower RP-LC retention time figure among these two: P and Q Record your answer as the label of the chosen record.
Q

====

test details: gradient 5% acetonitrile 3 min, to 50% in 2 min, to 85% in 15 min, held 3 min, 100 µL/min
cond: column: Zorbax Extend-C18 2.1 x 50 mm; eluents: water / acetonitrile, 0.1% formic acid
readout: RP-LC retention time (s)

Known RP-LC retention time results, listed for orientation:
1. Cc1ccc(-c2cc3c(=O)n(Cc4noc(CN5CCOCC5)n4)ccn3n2)cc1C
777
2. Cc1nc2ccc(C(=O)NC3CCN(C)CC3)cc2nc1C
566
3. Cc1ccc(-c2cn3c(CC(=O)NC4CCCCCC4)csc3n2)cc1C
894
4. COC[C@@H]1CN(S(=O)(=O)c2ccccc2F)C[C@H]1c1ccncc1
745
5. CCN(CC)C(=O)c1c(C)oc2ccn(Cc3ccc(F)cc3)c(=O)c12
787
6. CCN(CC)C(=O)c1ccc(-c2nc3cc(NS(=O)(=O)c4cc(F)ccc4F)ccc3n2C)cc1
704
7. CCOc1ccccc1NC(=O)CN1CCN(Cc2ccc(C)cc2)C(=O)C1=O
848
8. COc1cc2c(c(OC)c1OC)-c1ccc(OC)c(=O)cc1[C@@H](NC(=O)c1ccccc1)CC2
722

[A] O=C(C1=CN(c2ccc(Cl)cc2)c2cc(F)ccc2S1(=O)=O)N1CCCC1
[B] COc1ccc(C2(C(=O)N3CCCC(CN4CCOCC4)CC3)CC2)cc1 (stereo not drawn)
// which entry has the larger RP-LC retention time value, A or B ? Record your answer as the label of the chosen record.
A

[I] CCOc1ncccc1C(=O)OCc1cc(-c2ccco2)on1
[II] CC(=O)c1ccc(N2CCN(C(=O)CN3C(=O)C4C5C=CC(C5)C4C3=O)CC2)cc1 (stereo not drawn)
// which entry has the larger RP-LC retention time value, I or II ? Record your answer as the label of the chosen record.
I
(I: 927 s, II: 644 s)

[1] C=CCN(CC=C)S(=O)(=O)c1ccc(C(=O)N2CCCc3ccccc32)cc1
[2] CC(=O)c1cccc(NC(=O)Cn2cnc3nc4c(cc3c2=O)CCCC4)c1
Kindly identify the item with the lower RP-LC retention time figure among these two: 1 and 2 Record your answer as the label of the chosen record.
2
(2: 674 s, 1: 985 s)

[I] O=C1CC(c2noc(-c3ccccc3F)n2)CN1c1ccc(F)c(Cl)c1 (stereo not drawn)
[II] O=C(c1nc2nc(-c3cccs3)cc(C(F)(F)F)n2n1)N1CCN(c2ccccn2)CC1
Kindly identify the item with the lower RP-LC retention time figure among these two: I and II Record your answer as the label of the chosen record.
II

[P] CCc1cccc(NS(=O)(=O)c2cc3n(c2)CCN(CC)C3=O)c1
[Q] Fc1ccccc1N1CCN(c2ncnc3sc4c(c23)CCC4)CC1
// which entry has the larger RP-LC retention time value, P or Q ? Record your answer as the label of the chosen record.
Q
(Q: 1150 s, P: 762 s)

[1] CCc1nc(OCC(=O)NCc2cccc(F)c2)c2c(C)c(C)oc2n1
[2] Cc1cc(C)cc(NC(=O)NCC2(N3CCOCC3)CCOC2)c1 (stereo not drawn)
Kindly identify the item with the lower RP-LC retention time figure among these two: 1 and 2 Record your answer as the label of the chosen record.
2
(2: 617 s, 1: 942 s)

[1] Cc1csc(-c2ccc(N3CCN(C(=O)c4cc(F)ccc4F)CC3)nc2)n1
[2] COc1ccccc1NC(=O)Cn1nc2c(N3CCCCCC3)nccn2c1=O
// which entry has the larger RP-LC retention time value, 1 or 2 ? Record your answer as the label of the chosen record.
1
